# Subject of test: PPARδ (Homo sapiens)
# Sequence (Q03181 171-441 limits assumed): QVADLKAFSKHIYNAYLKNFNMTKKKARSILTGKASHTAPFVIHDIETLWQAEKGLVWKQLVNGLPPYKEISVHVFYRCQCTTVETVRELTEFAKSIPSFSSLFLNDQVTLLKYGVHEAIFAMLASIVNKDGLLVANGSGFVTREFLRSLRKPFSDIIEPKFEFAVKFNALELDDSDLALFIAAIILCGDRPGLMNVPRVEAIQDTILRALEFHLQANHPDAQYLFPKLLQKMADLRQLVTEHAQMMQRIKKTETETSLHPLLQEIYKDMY
# Assay name: PPAR transactivation test in crossed curves (HeLN luciferase reporter), PPARδ
# Format: cell-based
# Measurement setup: HeLN cells stably transfected with Gal-hPPARδ and luciferase reporter; crossed curves vs reference agonist, Schild regression; read-out: PPARs delta Kd app
Assay readout: Kd (nM)

>>> print(df.to_string())
                              sample_smiles  assay_readout  unit_of_measurement  result_value
0  CCCCOc1cc(/C=C(\OCC)C(=O)O)ccc1OCCc1ccc(OS(=O)(=O)CCCC)c(F)c1             Kd                   nM          2000
1  CCCCOc1cc(/C=C(\OCC)C(=O)O)ccc1OCCc1ccc(OS(=O)(=O)CCCC)c(OC)c1             Kd                   nM          2000
2  CCCCOc1cc(/C=C(\OCC)C(=O)O)ccc1CCCc1ccc(OS(=O)(=O)CCCC)c(OC)c1             Kd                   nM           250
3  CCCCOc1cc(/C=C(\OCC)C(=O)O)ccc1OCCc1ccc(OS(=O)(=O)CCCC)c(Cl)c1             Kd                   nM          1000

====

# Subject of test: PPARα (Homo sapiens, UniProt Q07869)
# Sequence (Q07869 200-468 limits assumed): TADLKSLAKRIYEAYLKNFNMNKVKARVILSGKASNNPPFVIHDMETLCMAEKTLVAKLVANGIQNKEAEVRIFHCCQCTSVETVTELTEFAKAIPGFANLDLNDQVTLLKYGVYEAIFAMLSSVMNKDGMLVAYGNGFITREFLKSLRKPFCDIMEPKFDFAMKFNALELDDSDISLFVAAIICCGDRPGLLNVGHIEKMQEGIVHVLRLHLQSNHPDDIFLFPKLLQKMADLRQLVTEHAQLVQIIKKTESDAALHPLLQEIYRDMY
# Assay name: PPAR transactivation test in crossed curves (HeLN luciferase reporter), PPARα
# Measurement setup: HeLN cells stably transfected with Gal-hPPARα and luciferase reporter; crossed curves vs reference agonist, Schild regression; read-out: PPAR alpha Kd app
Quick reference for Kd among some compounds
Assay readout: Kd (nM)

                                   compound  assay_readout  unit_of_measurement  result_value
0  CCCCOc1cc(/C=C(\OCC)C(=O)O)ccc1OCCc1ccc(OS(C)(=O)=O)c(OC)c1 [Example 7]             Kd                   nM           250
1  CCCCOc1cc(/C=C(\OCC)C(=O)O)ccc1OCCc1ccc(OS(=O)(=O)CCCC)cc1OC [Example 9]             Kd                   nM          2000
2  CCCCOc1cc(/C=C(\OCC)C(=O)O)ccc1OCCc1ccc(OS(=O)(=O)CCCC)c(Cl)c1 [Example 17]             Kd                   nM            60
3  CCCCOc1cc(/C=C(\OCC)C(=O)O)ccc1OCCc1ccc(OS(=O)(=O)CCCC)c(OC)c1 [Example 8]             Kd                   nM           120
4  CCCCOc1cc(/C=C(\OCC)C(=O)O)ccc1OCCc1ccc(OS(=O)(=O)CCCC)cc1 [Example 6]             Kd                   nM           120
5  CCCCOc1cc(/C=C(\OCC)C(=O)O)ccc1CCCc1ccc(OS(=O)(=O)CCCC)c(OC)c1 [Example 3]             Kd                   nM            60
6  CCCCOc1cc(/C=C(\OCC)C(=O)O)ccc1OCCc1ccc(OS(=O)(=O)CCCC)c(F)c1 [Example 13]             Kd                   nM           250

====

Assay readout: melting point (°C)

>>> df
                              sample_smiles  result_value
0  CCCCOc1cc(/C=C(\OCC)C(=O)O)ccc1OCCc1ccc(OS(C)(=O)=O)c(OC)c1            97
1  CCCCOc1cc(/C=C(\OCC)C(=O)O)ccc1OCCc1ccc(OS(=O)(=O)CCCC)c(F)c1            99
2  CCO/C(=C\c1ccc(OCCc2ccc(OCC)cc2)c(OC)c1)C(=O)O           121
3  CCCCOc1cc(/C=C(\OCC)C(=O)O)ccc1OCCc1ccc(OS(C)(=O)=O)cc1OC           112

====

Assay readout: melting point (°C)

                                   molecule  result_value
0  CCCCOc1cc(/C=C(\OCC)C(=O)O)ccc1OCCc1ccc(OCC)c(F)c1 [Example 11]           119
1  CCCCS(=O)(=O)Oc1ccc(CCOc2ccc(/C=C(\OCC)C(=O)O)cc2OC)cc1 [Example 1]            94
2  CCCCCOc1ccc(CCOc2ccc(/C=C(\OCC)C(=O)O)cc2OCCCC)cc1F [Example 12]           102
3  CCCCCOc1ccc(CCOc2ccc(/C=C(\OCC)C(=O)O)cc2OCCCC)cc1Cl [Example 15]            95
4  CCCCOc1cc(/C=C(\OCC)C(=O)O)ccc1OCCc1ccc(OS(=O)(=O)CCCC)c(Cl)c1 [Example 17]            80
5  CCCCOc1cc(/C=C(\OCC)C(=O)O)ccc1OCCc1ccc(NS(=O)(=O)CCCC)cc1 [Example 22]           164
6  CCCCOc1cc(/C=C(\OCC)C(=O)O)ccc1OCCc1ccc(N(C)S(C)(=O)=O)cc1 [Example 23]           112
7  CCCCOc1cc(/C=C(\OCC)C(=O)O)ccc1OCCc1ccc(OS(C)(=O)=O)c(Cl)c1 [Example 16]           113

====

# Subject of test: PPARγ (Homo sapiens)
# Sequence (P37231 238-505 limits assumed): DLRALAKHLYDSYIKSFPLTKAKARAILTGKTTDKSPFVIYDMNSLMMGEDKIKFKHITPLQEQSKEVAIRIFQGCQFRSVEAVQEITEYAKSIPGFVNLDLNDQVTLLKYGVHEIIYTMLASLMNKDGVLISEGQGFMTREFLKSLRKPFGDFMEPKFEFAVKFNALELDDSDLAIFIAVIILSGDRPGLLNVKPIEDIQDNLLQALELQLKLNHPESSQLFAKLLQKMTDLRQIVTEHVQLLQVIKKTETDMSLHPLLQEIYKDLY
# Assay name: PPAR transactivation test in crossed curves (HeLN luciferase reporter), PPARγ
# Measurement setup: HeLN cells stably transfected with Gal-hPPARγ and luciferase reporter; crossed curves vs reference agonist, Schild regression; read-out: PPAR gamma Kd app
# Experimental: Activation of the PPAR receptors by an agonist (activator) in HeLN cells leads to the expression of a reporter gene, luciferase, which, in the presence of a substrate, generates light. The modulation of the PPAR receptors is measured by quantifying the luminescence produced after incubation of the cells in the presence of a reference agonist. The ligands will displace the agonist from its site. The activity is measured by quantifying the light produced. […]
pKd: −log10 of the molar value.
Assay readout: pKd

>>> print(df.to_string())
                              sample_smiles  result_value
0  CCCCOc1cc(/C=C(\OCC)C(=O)O)ccc1OCCc1ccc(OS(=O)(=O)CCCC)c(F)c1          8.10
1  CCCCOc1cc(/C=C(\OCC)C(=O)O)ccc1OCCc1ccc(OS(=O)(=O)CCCC)cc1OC          8.10
2  CCCCS(=O)(=O)Oc1ccc(CCOc2ccc(/C=C(\OCC)C(=O)O)cc2OC)cc1          8.10
3  CCCCOc1cc(/C=C(\OCC)C(=O)O)ccc1OCCc1ccc(OS(=O)(=O)CCCC)cc1          8.70
4  CCCCOc1cc(/C=C(\OCC)C(=O)O)ccc1OCCc1ccc(OS(=O)(=O)CCCC)c(Cl)c1          8.10
5  CCCCOc1cc(/C=C(\OCC)C(=O)O)ccc1OCCc1ccc(OS(=O)(=O)CCCC)c(OC)c1          7.82
6  CCCCOc1cc(/C=C(\OCC)C(=O)O)ccc1CCCc1ccc(OS(=O)(=O)CCCC)c(OC)c1          7.82
7  CCCCOc1cc(/C=C(\OCC)C(=O)O)ccc1OCCc1ccc(OS(C)(=O)=O)c(OC)c1          7.82
